# System: HS 578T breast
# Assay remarks: NCI-60 one-dose screen, 48 h (100 = growth as untreated, 0 = no growth, -100 = all killed)
# Assay conditions: 10 µM
This is part of a sample that, as a whole, favours compounds with a hit. Of some 83,000 tested, about 20% had one in any assay.
Test readout: growth (%)
Use % as the unit, but write only the number.

CC(C)(C)C(=O)OCOP(=O)(OCOC(=O)C(C)(C)C)C1CCCN(OC(=O)c2ccccc2)C1=O (stereo not given) | 8

Query: Lab request: please report growth under test system HS 578T breast for "C=C1C[C@H](O)[C@H](Br)C(C)(C)[C@@]12CCC(C)=C(Cl)C2"
Response: 22.3

Query: Here is the next compound: COc1cc(NC2CCC(=O)N2c2ccc(Cl)cc2Cl)cc(OC)c1OC (stereo not given)
Response: 102

Query: Here is the next compound: "O=C(NO)c1ccc(Cn2c(=O)n(-c3ccccc3F)c(=O)c3ccccc32)cc1"
Response: 46.6

Query: Here is the next compound: CC(=O)C1=C(C)NC(SCc2nnc(-c3ccc(C)cc3)o2)=NC1c1ccc(F)cc1 (stereo not given)
Response: 112

Query: Here is the next compound: "O=C1CCC(=O)CC1"
Response: 103

====

# System: HCC-2998 colon
# Assay remarks: NCI-60 one-dose screen, 48 h
# Assay conditions: 10 µM
This is part of a sample that, as a whole, favours compounds with a hit. Of some 83,000 tested, about 20% had one in any assay. Calls of active or inactive are those of the source. Rule for the calls: active = growth percent below 10; inactive = the rest.
Respond only with the outcome that fits, drawn from true (active), false (inactive)

Cc1cc(Nc2ncc(Cl)c(Nc3ccccc3S(=O)(=O)C(C)C)n2)c(OC(C)C)cc1C1CCNCC1 | true
C=CC(=O)Nc1cccc(Nc2nc(Nc3ccc(N4CCN(C(C)=O)CC4)cc3OC)ncc2C(F)(F)F)c1 | false

Query: So what was the verdict on "CC(C)[C@@H]1CC[C@@H]2[C@@H]1[C@H](OC(=O)/C=C/c1ccccc1)[C@]1(C(C)C)C[C@@H](OC(=O)CO)[C@@]2(C)O1" in this test?
Response: false

====

// growth lookup, one value per entry
# System: NCI-H322M lung
# Assay remarks: NCI-60 one-dose screen, 48 h (100 = growth as untreated, 0 = no growth, -100 = all killed)
# Assay conditions: 10 µM unless noted
Compounds without any hit were thinned out: in the full panel of roughly 83,000, 20% have a hit. Activity calls are given as the source filed them. Rule for the calls: active = growth percent below 10; inactive = the rest.

Clc1nc(Cl)c2ncn(C/C=C\Cn3cnc4c(Cl)nc(Cl)nc43)c2n1 | 21.4% (inactive)
CC(C)NC[C@@H](C(=O)N1CCN(c2ncnc3c2[C@H](C)C[C@H]3O)CC1)c1ccc(Cl)cc1 | 55.6% (inactive)
Clc1nc(Cl)c2ncn(CC#CCn3cnc4c(Cl)nc(Cl)nc43)c2n1 | 46.6% (inactive)
Cc1cc(-c2cc(O)ccc2Cl)cc2nnc(Nc3ccc(OCCN4CCCC4)cc3)nc12 | -94.4% (active)
CC(=O)NCC(=O)N1[C@@H]2CC[C@H]1c1ccc(Nc3ncc(C(F)(F)F)c(NC4CCC4)n3)cc12 | 14.2% [2.5 µM] (inactive)
CC[C@H](CO)Nc1nc(NCc2ccccc2)c2ncn(C(C)C)c2n1 | 61.3% (inactive)
CC#CC(=O)N1CCC[C@H]1c1nc(-c2ccc(C(=O)Nc3ccccn3)cc2)c2c(N)nccn12 | 76.6% (inactive)
CCN(CC)C(=O)C[N+](C)(C)CCOC(c1ccccc1)c1ccccc1 | 104% (inactive)
O=C1NC(=O)/C(=C/c2ccc3nccc(-c4ccncc4)c3c2)S1 | -50.8% (active)
CN(C)CCn1c(=O)c2c3cc4c(cc3n(CCN(C)C)c2c2ccc(Cl)cc21)OCO4 | 49.1% (inactive)

Query: Param item = N#CC1(C#N)C(c2cccs2)NC(c2cccs2)C1(C#N)C#N (stereo not given) ; retrieve measured growth.
Response: 98% (inactive)

Query: Here is the next molecule: "CCN(CC)CCNc1ccc(N=Nc2cnc3ccccc3c2)c2ccccc12"
Response: 10.8% (inactive)

Query: Here is the next molecule: "CN(N)c1nc2sc3c(c2c(=O)[nH]1)CCCC3"
Response: 96.9% (inactive)

Query: Here is the next molecule: "C=CCC(=O)N[C@H](/C=C/C(=O)O)Cc1ccc(-c2cc(Cl)cc(Cl)c2)cc1"
Response: 101% (inactive)

Query: Here is the next molecule: "COc1cc(-c2nc(C(=O)NCC(=O)O)nn2-c2ccc(Cl)cc2)cc(OC)c1OC"
Response: 102% (inactive)

Query: Here is the next molecule: "Nc1ncnc2c1ccn2-c1cccc(NC(=O)c2ccc(N3CCOCC3)c(C(F)(F)F)c2)c1"
Response: 80.6% (inactive)

Query: Here is the next molecule: "COc1ccc2c(CCCC(c3ccccc3)c3ccccc3)c3[n+](cc2c1OC)CCc1cc2c(cc1-3)OCO2"
Response: 16.2% (inactive)

Query: Here is the next molecule: O=C1CC(c2cccc(F)c2)c2c(n[nH]c2-c2ccc(Cl)cc2)N1 (stereo not given)
Response: 81.9% (inactive)

Query: Here is the next molecule: "O=C(c1c(F)ccc(NS(=O)(=O)N2CC[C@@H](F)C2)c1F)c1c[nH]c2ncc(-c3cnc(C4CC4)nc3)cc12"
Response: 21.6% (inactive)

Query: Here is the next molecule: "Nc1cc(C(F)(F)F)c(-c2cc(N3CCOCC3)nc(N3CCOCC3)n2)cn1"
Response: -18.3% (active)

FYI, the data here is from PubChem BioAssay (NCI).
